# test.details: Pharmacokinetic study in rats after single oral administration of GLB (HPLC-UV in plasma)
# Format: in vivo, Sprague-Dawley rats
# measurement.setup: male, Sprague-Dawley, rat, plasma, oral, 100 mg/kg, 48 h after single oral GLB 100 mg/kg, rat; M1/M2 relative to GLB standard curve
metric.name: concentration at 48 h (ng/mL)
Return type: number; implicit unit ng/mL.

Request: Any idea what its concentration at 48 h is? The compound is CC(=O)N1N=C(c2ccc(Br)cc2)OC1(C1OC(C)(C)OC1C(=O)O)C1(O)COC(C)(C)O1 (centres unmarked)
Response: 24

Request: Quick one: CC(=O)N1N=C(c2ccc(Br)cc2)OC12C1OC(C)(C)OC1COC21COC(C)(C)O1 (centres unmarked)
Response: 58

---

# test.details: Pharmacokinetic study in rats after single oral administration of GLB (HPLC-UV in plasma)
# Assay type: in vivo, Sprague-Dawley rats
# measurement.setup: male, Sprague-Dawley, rat, plasma, oral, 100 mg/kg, 72 h after single oral GLB 100 mg/kg, rat; M1/M2 relative to GLB standard curve
metric.name: concentration at 72 h (ng/mL)
Return type: number; implicit unit ng/mL.

Request: Any idea what its concentration at 72 h is? The compound is CC(=O)N1N=C(c2ccc(Br)cc2)OC1(C1OC(C)(C)OC1C(=O)O)C1(O)COC(C)(C)O1 (centres unmarked) [M1]
Response: 15

Request: Quick one: CC(=O)N1N=C(c2ccc(Br)cc2)OC12C1OC(C)(C)OC1COC21COC(C)(C)O1 (centres unmarked) [GLB]
Response: 11

---

# test.details: Pharmacokinetic study in rats after single oral administration of GLB (HPLC-UV in plasma)
# Assay type: in vivo, Sprague-Dawley rats
# measurement.setup: male, Sprague-Dawley, rat, plasma, oral, 100 mg/kg, 4 h after single oral GLB 100 mg/kg, rat; M1/M2 relative to GLB standard curve
For each entry below, report its concentration at 4 h value.
Return type: number; implicit unit ng/mL.

Request: Any idea what its concentration at 4 h is? The compound is CC(=O)N1N=C(c2ccc(Br)cc2)OC1(C1OC(C)(C)OC1C(=O)O)C1(O)COC(C)(C)O1 (centres unmarked)
Response: 336

Request: Quick one: CC(=O)N1N=C(c2ccc(Br)cc2)OC12C1OC(C)(C)OC1COC21COC(C)(C)O1 (centres unmarked)
Response: 1460

---

For each entry below, report its concentration at 6 h value.
# test.details: Pharmacokinetic study in rats after single oral administration of GLB (HPLC-UV in plasma)
# Type: in vivo, Sprague-Dawley rats
# measurement.setup: male, Sprague-Dawley, rat, plasma, oral, 100 mg/kg, 6 h after single oral GLB 100 mg/kg, rat; M1/M2 relative to GLB standard curve
Don't forget the unit after the number, please.

Request: Any idea what its concentration at 6 h is? The compound is CC(=O)N1N=C(c2ccc(Br)cc2)OC12C1OC(C)(C)OC1COC21COC(C)(C)O1 (centres unmarked)
Response: 2780 ng/mL

Request: Quick one: CC(=O)N1N=C(c2ccc(Br)cc2)OC1(C1OC(C)(C)OC1C(=O)O)C1(O)COC(C)(C)O1 (centres unmarked)
Response: 517 ng/mL

---

# test.details: Pharmacokinetic study in rats after single oral administration of GLB (HPLC-UV in plasma)
# Assay type: in vivo, Sprague-Dawley rats
# measurement.setup: male, Sprague-Dawley; rat plasma, single oral GLB 100 mg/kg, n = 6; M1/M2 relative concentrations from GLB standard curve
For each entry below, report its AUC(0-inf) value.
Return type: number; implicit unit ng·h/mL.

Request: Any idea what its AUC(0-inf) is? The compound is CC(=O)N1N=C(c2ccc(Br)cc2)OC12C1OC(C)(C)OC1COC21COC(C)(C)O1 (centres unmarked)
Response: 33500

Request: Quick one: CC(=O)N1N=C(c2ccc(Br)cc2)OC1(C1OC(C)(C)OC1C(=O)O)C1(O)COC(C)(C)O1 (centres unmarked)
Response: 10000

---

For each entry below, report its concentration at 36 h value.
# test.details: Pharmacokinetic study in rats after single oral administration of GLB (HPLC-UV in plasma)
# Format: in vivo, Sprague-Dawley rats
# measurement.setup: male, Sprague-Dawley, rat, plasma, oral, 100 mg/kg, 36 h after single oral GLB 100 mg/kg, rat; M1/M2 relative to GLB standard curve
Return type: number; implicit unit µg/mL.

Request: Any idea what its concentration at 36 h is? The compound is CC(=O)N1N=C(c2ccc(Br)cc2)OC1(C1OC(C)(C)OC1C(=O)O)C1(O)COC(C)(C)O1 (centres unmarked)
Response: 0.037

Request: Quick one: CC(=O)N1N=C(c2ccc(Br)cc2)OC12C1OC(C)(C)OC1COC21COC(C)(C)O1 (centres unmarked)
Response: 0.139

---

# test.details: Pharmacokinetic study in rats after single oral administration of GLB (HPLC-UV in plasma)
# Format: in vivo, Sprague-Dawley rats
# measurement.setup: male, Sprague-Dawley, rat, plasma, oral, 100 mg/kg, 96 h after single oral GLB 100 mg/kg, rat; M1/M2 relative to GLB standard curve
For each entry below, report its concentration at 96 h value.

Request: Any idea what its concentration at 96 h is? The compound is CC(=O)N1N=C(c2ccc(Br)cc2)OC12C1OC(C)(C)OC1COC21COC(C)(C)O1 (centres unmarked)
Response: 16 ng/mL

Request: Quick one: CC(=O)N1N=C(c2ccc(Br)cc2)OC1(C1OC(C)(C)OC1C(=O)O)C1(O)COC(C)(C)O1 (centres unmarked)
Response: 25 ng/mL

---

# test.details: Pharmacokinetic study in rats after single oral administration of GLB (HPLC-UV in plasma)
# Format: in vivo, Sprague-Dawley rats
# measurement.setup: male, Sprague-Dawley, rat, plasma, oral, 100 mg/kg, 1 h after single oral GLB 100 mg/kg, rat; M1/M2 relative to GLB standard curve
metric.name: concentration at 1 h (ng/mL)
Return type: number; implicit unit ng/mL.

Request: Any idea what its concentration at 1 h is? The compound is CC(=O)N1N=C(c2ccc(Br)cc2)OC12C1OC(C)(C)OC1COC21COC(C)(C)O1 (centres unmarked)
Response: 673

Request: Quick one: CC(=O)N1N=C(c2ccc(Br)cc2)OC1(C1OC(C)(C)OC1C(=O)O)C1(O)COC(C)(C)O1 (centres unmarked)
Response: 91

---

# test.details: Pharmacokinetic study in rats after single oral administration of GLB (HPLC-UV in plasma)
# Type: in vivo, Sprague-Dawley rats
# measurement.setup: male, Sprague-Dawley, rat, plasma, oral, 100 mg/kg, 24 h after single oral GLB 100 mg/kg, rat; M1/M2 relative to GLB standard curve
For each entry below, report its concentration at 24 h value.
Return type: number; implicit unit ng/mL.

Request: Any idea what its concentration at 24 h is? The molecule is CC(=O)N1N=C(c2ccc(Br)cc2)OC12C1OC(C)(C)OC1COC21COC(C)(C)O1 (centres unmarked)
Response: 262

Request: Quick one: CC(=O)N1N=C(c2ccc(Br)cc2)OC1(C1OC(C)(C)OC1C(=O)O)C1(O)COC(C)(C)O1 (centres unmarked)
Response: 185

---

# test.details: Pharmacokinetic study in rats after single oral administration of GLB (HPLC-UV in plasma)
# Format: in vivo, Sprague-Dawley rats
# measurement.setup: male, Sprague-Dawley, rat, plasma, oral, 100 mg/kg, 12 h after single oral GLB 100 mg/kg, rat; M1/M2 relative to GLB standard curve
For each entry below, report its concentration at 12 h value.
Return type: number; implicit unit ng/mL.

Request: Any idea what its concentration at 12 h is? The molecule is CC(=O)N1N=C(c2ccc(Br)cc2)OC12C1OC(C)(C)OC1COC21COC(C)(C)O1 (centres unmarked) [GLB]
Response: 1470

Request: Quick one: CC(=O)N1N=C(c2ccc(Br)cc2)OC1(C1OC(C)(C)OC1C(=O)O)C1(O)COC(C)(C)O1 (centres unmarked) [M1]
Response: 390

---

# test.details: Pharmacokinetic study in rats after single oral administration of GLB (HPLC-UV in plasma)
# Type: in vivo, Sprague-Dawley rats
# measurement.setup: male, Sprague-Dawley; rat plasma, single oral GLB 100 mg/kg, n = 6; M1/M2 relative concentrations from GLB standard curve; read-out: Cmax
metric.name: Cmax (ng/mL)
Return type: number; implicit unit ng/mL.

Request: Any idea what its Cmax is? The compound is CC(=O)N1N=C(c2ccc(Br)cc2)OC1(C1OC(C)(C)OC1C(=O)O)C1(O)COC(C)(C)O1 (stereo not shown) [M1]
Response: 540

---

# test.details: Pharmacokinetic study in rats after single oral administration of GLB (HPLC-UV in plasma)
# Format: in vivo, Sprague-Dawley rats
# measurement.setup: male, Sprague-Dawley; rat plasma, single oral GLB 100 mg/kg, n = 6; M1/M2 relative concentrations from GLB standard curve; read-out: AUC(0-96)
For each entry below, report its AUC(0-t) value.
Return type: number; implicit unit ng·h/mL.

Request: Any idea what its AUC(0-t) is? The compound is CC(=O)N1N=C(c2ccc(Br)cc2)OC12C1OC(C)(C)OC1COC21COC(C)(C)O1 (centres unmarked)
Response: 33300

Request: Quick one: CC(=O)N1N=C(c2ccc(Br)cc2)OC1(C1OC(C)(C)OC1C(=O)O)C1(O)COC(C)(C)O1 (centres unmarked)
Response: 9660

Origin of the recorded values: paper PMC4493701
